Target Or System: HLA-B*18:01
Procedure Summary: IEDB peptide-MHC binding, purified MHC/competitive/radioactivity; filed as Kd, often an IC50 or EC50 that approximates it; bounds were set here for any values at or beyond the usual limits of such assays
Measurement Parameters: source organism: Hepatitis C virus (isolate 1)
Reported Metric: Kd

Sequence Code: HSKKKCDEL
Value Observed: ≥ 77.5 µM

* * *

Target Or System: HLA-A*02:16
Procedure Summary: IEDB peptide-MHC binding, purified MHC/competitive/fluorescence; filed as Kd, often an IC50 or EC50 that approximates it; bounds were set here for any values at or beyond the usual limits of such assays
Measurement Parameters: source organism: Vibrio cholerae 2740-80

Sequence Code: LAVFPAMFW
Kd: ≥ 20 µM

* * *

This listing pairs sequences with measured Kd.
Target Or System: HLA-B*48:01
Procedure Summary: IEDB peptide-MHC binding, purified MHC/direct/fluorescence; filed as Kd, often an IC50 or EC50 that approximates it; bounds were set here for any values at or beyond the usual limits of such assays
Measurement Parameters: source organism: Giardia lamblia ATCC 50803
Reported Metric: Kd

Sequence Code: YRYKMPVME
Reported Metric: Kd
Value Observed: ≥ 20 µM
--
Sequence Code: VAAKGAPAL
Reported Metric: Kd
Value Observed: 5.66 µM
--
Sequence Code: AEWGWTATM
Reported Metric: Kd
Value Observed: ≥ 20 µM

* * *

Target Or System: HLA-B*27:03
Procedure Summary: IEDB peptide-MHC binding, purified MHC/direct/fluorescence; filed as Kd, often an IC50 or EC50 that approximates it; bounds were set here for any values at or beyond the usual limits of such assays
Measurement Parameters: source organism: Mycobacterium tuberculosis
pKd: −log10 of the molar value.

Sequence Code: SIYYTLVRM
pKd: ≤ 4.70

* * *

Target Or System: HLA-A*31:01
Procedure Summary: IEDB peptide-MHC binding, purified MHC/direct/fluorescence; filed as Kd, often an IC50 or EC50 that approximates it; bounds were set here for any values at or beyond the usual limits of such assays
Measurement Parameters: source organism: Francisella tularensis subsp. holarctica LVS

Sequence Code: REIGDISYL
Kd: ≥ 20 µM

* * *

Target Or System: HLA-B*40:01
Procedure Summary: IEDB peptide-MHC binding, purified MHC/direct/fluorescence; filed as Kd, often an IC50 or EC50 that approximates it; bounds were set here for any values at or beyond the usual limits of such assays
Measurement Parameters: source organism: Influenza A virus (A/chicken/CA/375TR/2002(H6N2))

Sequence Code: REITFHGAK
Kd, nM: 412

* * *

Target Or System: HLA-B*15:17
Procedure Summary: IEDB peptide-MHC binding, purified MHC/competitive/fluorescence; filed as Kd, often an IC50 or EC50 that approximates it; bounds were set here for any values at or beyond the usual limits of such assays
Measurement Parameters: source organism: Orthohantavirus tulaense
pKd: −log10 of the molar value.

Sequence Code: VVDALRNIY
Target Or System: HLA-B*15:17
pKd: ≤ 4.70

* * *

Target Or System: HLA-B*18:01
Procedure Summary: IEDB peptide-MHC binding, purified MHC/competitive/fluorescence; filed as Kd, often an IC50 or EC50 that approximates it; bounds were set here for any values at or beyond the usual limits of such assays
Measurement Parameters: source organism: Orthohantavirus andesense
Reported Metric: Kd

Sequence Code: QIQAGNFHW
Reported Metric: Kd
Value Observed: ≥ 20 µM
